Measured GI50 of individual entries
- Test system: HCT-15
measured endpoint: GI50 (µM)

# compound, bound operator, value observed
records = [
    ("COC(=O)[C@]1(C)CCCn2c(=O)n(-c3ccccc3)c(=O)n21", ">", 100),
    ("COc1ccc2c(c1O)[C@@]13CCCC=C1[C@@H](C2)[N+](C)(C)CC3", ">", 100),
    ("COc1ccc(/C(Cl)=C(\\C=O)c2ccc(OC)c(OC)c2)cc1", "=", 52.1),
    ("O=C(OCC(Cl)(Cl)Cl)O[C@@H]1CCCC1(c1ccccc1)c1ccccc1", "=", 77.4),
    ("CC(C)OP(=O)(c1ccccc1)c1ccc2c(c1)OCCOCCOCCOCCO2 (stereo unspecified)", ">", 100),
    ("O=C1NC(=O)C(c2c[nH]c3ccccc23)=C1c1cnc[nH]1", ">", 100),
    ("CN(C)CN1C(=O)/C(=N\\n2c(S)nnc2-c2ccncc2)c2ccccc21", "=", 28.1),
    ("N=C(N)SCc1nc(-c2ccc(Cl)cc2)no1", "=", 11.2),
    ("OCC1=C[C@@](COCc2ccccc2)(OCc2ccccc2)[C@@H](OCc2ccccc2)[C@@H]1OCc1ccccc1", "=", 17.1),
    ("CC(C)C(=O)Nc1cc(C(F)(F)F)ccc1[N+](=O)[O-]", ">", 100),
    ("CSc1ncc2c(n1)-c1ccccc1OC2", "=", 51.2),
    ("COc1c2c(cc3c1C(O)N1CC[C@]34[C@H]3O[C@H]3[C@H](OC)C[C@@H]14)OCO2 (stereo partly specified)", "=", 67.3),
    ("CC1(C)CCC2=C(O1)/C(=N\\Nc1ccccc1)c1ccccc1C2=O", "=", 29.6),
    ("Cc1nc(C)c(C(=O)NNC(=O)Cc2ccccc2)cc1C(=O)NNC(=O)Cc1ccccc1", ">", 100),
    ("C/C=C(/CCC1NCCc2c1[nH]c1ccccc21)[Si](C)(C)C (stereo unspecified)", "=", 6.27),
    ("O=C(NNC(=O)c1ccccc1O)c1ccc(O)cc1", "=", 19.2),
    ("Fc1cccc(C2ON=C(c3ccccc3)N2C23CC4CC(CC(C4)C2)C3)c1 (stereo unspecified)", ">", 10),
    ("CC1=C(CC2C(=O)N(c3ccccc3)S(=O)(=O)NC2C)C(=O)N(c2ccccc2)S(=O)(=O)N1C (stereo unspecified)", ">", 100),
    ("O=C(NCc1ccc(Cl)c(Cl)c1)c1nc2ccccc2nc1NCc1ccc(Cl)c(Cl)c1", ">", 100),
    ("C=CCN(C(=O)OC(C)(C)C)C1=CC2C(C)=CN(S(=O)(=O)c3ccccc3)C2C(OCc2ccccc2)=C1 (stereo unspecified)", ">", 100),
    ("O=c1sc(Nc2ccc3ccccc3c2Cl)nc2ccccc12", ">", 100),
]

Ref: ChEMBL document CHEMBL1201862
